Data origin, for the record: patent USRE48335E1

system: Enterobacter cloacae
Positions of bridges follow the written chain, without caps; N, C: chain ends. Non-standard residues stand in square brackets, D forms with d. Residues, ends and D or L forms follow the SMILES beside them. *: point of attachment. Decanoyl = CCCCCCCCCC(=O)*; Octanoyl = CCCCCCCC(=O)*; Dab = NCC[C@H](N)C(=O)O; Abu = CC[C@H](N)C(=O)O; Dap = NC[C@H](N)C(=O)O; X44 = O=C(c1ccccc1Cl)*
Form field: Minimum inhibitory concentration, Ec FADDI-EC001 (one value per entry).
The reply should be a number in µg/mL, with the unit left off.

Consider the reported Minimum inhibitory concentration, Ec FADDI-EC001 for these compounds:
CCCCCCCC(=O)N[C@@H](CCN)C(=O)N[C@H](C(=O)N[C@@H](CN)C(=O)N[C@H]1CCNC(=O)[C@H]([C@@H](C)O)NC(=O)[C@H](CCN)NC(=O)[C@H](CCN)NC(=O)[C@H]([C@@H](C)O)NC(=O)[C@@H](CC(C)C)NC(=O)[C@H](CN)NC1=O)[C@@H](C)O [Compound 52] (Octanoyl-[Dab]T[Dap][Dab][Dap][dL]T[Dab][Dab]T; lactam 4-C) = 0.25
CCCCCCCCCC(=O)N[C@@H](CCN)C(=O)N[C@H](C(=O)N[C@@H](CCN)C(=O)N[C@H]1CCNC(=O)[C@H]([C@@H](C)O)NC(=O)[C@H](CCN)NC(=O)[C@H](CCN)NC(=O)[C@H](C(C)C)NC(=O)[C@@H](CC(C)C)NC(=O)[C@H](CCN)NC1=O)[C@@H](C)O [Compound 41] (Decanoyl-[Dab]T[Dab][Dab][Dab][dL]V[Dab][Dab]T; lactam 4-C) = 1

Fill in Minimum inhibitory concentration, Ec FADDI-EC001 for CC[C@@H]1NC(=O)[C@@H](CC(C)C)NC(=O)[C@H](CCN)NC(=O)[C@@H](NC(=O)[C@H](CN)NC(=O)[C@@H](NC(=O)[C@H](CCN)NC(=O)c2ccccc2Cl)[C@@H](C)O)CCNC(=O)[C@H]([C@@H](C)O)NC(=O)[C@H](CCN)NC(=O)[C@H](CCN)NC1=O [Compound 72] (X44-[Dab]T[Dap][Dab][Dab][dL][Abu][Dab][Dab]T; lactam 4-C) tested with Enterobacter cloacae.
0.5
